Reported cytotoxicity at 10 µM is given for each of the following molecules.
# Assay Protocol: Toxicity liver stage against HepG2, at 10uM
# Assay type: cell-based
# Parameters: test concentration 10 uM, cell line HepG2-A16-CD81EGFP
# Experimental Setup: human, HepG2-A16-CD81EGFP cells; read-out: INHIBITION

{"columns": ["Molecule", "cytotoxicity at 10 µM"],
 "data": [
  ["COc1cccc2c(=O)n(C3CCNCC3)cnc12", "-53.4%"],
  ["CCc1nc(N2CCC3(CC2)CC(=O)N(Cc2ccc(Cl)cc2)C3)no1", "4.48%"],
  ["CCc1nc(CCNS(=O)(=O)c2cccc(C(=O)N(C)CC)c2)cs1", "-36.2%"],
  ["O=C(NCCNc1cnccn1)N1CCCC(N2CCCC2)C1 (configuration not stated)", "-3.12%"],
  ["CC(C)CN1CC(O)CN(C(=O)c2cccc(C(F)(F)F)c2)CC1=O (configuration not stated)", "-7.08%"],
  ["O=C(c1cccnc1Oc1ccccc1)N1CCCn2ncnc21", "-13.7%"],
  ["Cc1nn(C)c(N(C)C)c1CNC1CCCCNC1=O (configuration not stated)", "7.76%"],
  ["O=C(C1CCOCC1)N1C[C@@H]2C[C@@H](c3nc(C4CC4)cs3)O[C@@H]2C1", "-10.1%"],
  ["O=C1NCCCCC1NS(=O)(=O)N1CCCCC1 (configuration not stated)", "1.48%"],
  ["CC(C)Cc1nc(CS(=O)(=O)C(C)C(=O)N2CCOCC2)no1 (configuration not stated)", "3.13%"],
  ["COc1ccc(NC(=O)Cn2ccc3c(=O)n(C)ccc32)cc1OC", "-4.34%"],
  ["COC(=O)CNC(=O)c1sccc1N(C)S(=O)(=O)c1ccc(Cl)cc1", "-15.4%"],
  ["Cc1cc2occ(CC(=O)N3CCC(O)(CN(C)C)C3)c2cc1Cl (configuration not stated)", "-6.55%"],
  ["CN1C[C@@H](C(=O)NCC(F)(F)F)[C@@]2(CCc3ccccc3C(=O)N2)C1", "6.22%"],
  ["Cc1nc(CNC(=O)NC2CC(C)(C)OC2(C)C)sc1C (configuration not stated)", "-3.77%"],
  ["CN(CCc1ccccn1)C(=O)c1cn2c(n1)CNCC2", "-43.5%"],
  ["CCc1ccc(C(=O)N2CCC(N(C)C(=O)OC(C)(C)C)C2)o1 (configuration not stated)", "-48%"],
  ["CC(NC(=O)N1CCCN(C)CC1)c1ccc(S(N)(=O)=O)cc1 (configuration not stated)", "-11.7%"],
  ["O=C1CCC2(CCNCC2)CN1Cc1nnc2ccccn12", "-0.949%"],
  ["Cc1ccc(N2CC3(COCCN(Cc4cccnc4)C3)OCC2=O)s1 (configuration not stated)", "2.39%"],
  ["c1ccc2oc(CCCN3CCCC3Cn3cncn3)nc2c1 (configuration not stated)", "-1.42%"],
  ["C[C@@H]1CN(C(=O)C2CCS(=O)(=O)CC2)CC[C@@]1(O)C1CCOCC1", "-9.34%"],
  ["COc1cccc(C2CC(=O)Nc3nc(N)sc32)c1OC (configuration not stated)", "3.74%"],
  ["O=C(c1ccnnc1)N1C[C@H](OCC2CCOCC2)[C@H]2OCCC[C@H]21", "3.86%"],
  ["CNS(=O)(=O)c1ccc(C(=O)N2CCCC2c2ccncc2)o1 (configuration not stated)", "-6.23%"],
  ["O=C(CN1CCCC1Cn1cccn1)NC1CCOCC1 (configuration not stated)", "-23.2%"],
  ["Cc1nc(CN(C)C2CCN(Cc3sc(C)nc3C)C2)no1 (configuration not stated)", "-8.99%"],
  ["Fc1ccc(-n2cccn2)c(CN2CCCCC2CCn2ccnc2)c1 (configuration not stated)", "-11.3%"],
  ["CCNc1nc(C)c(C(=O)N(C)Cc2nc(CC)no2)s1", "-6.02%"],
  ["Cc1cc(CN(C)C(=O)NC2CCN(c3ncccn3)CC2)no1", "-12.8%"],
  ["CCN(CCNCc1ccc(C#N)cc1)C1CC1", "-6.54%"],
  ["CN(C)c1cncc(-c2ccnc3c2ccn3C)n1", "5.51%"],
  ["N#Cc1ccc(NC2CCN(CC(F)F)CC2)c(F)c1", "-5.3%"],
  ["Cc1ccccc1CN1CCC(CNc2ncnc3c2CCNCC3)C1 (configuration not stated)", "-7.13%"],
  ["CCN(CC1CCOC1)C(=O)c1cc(Cl)c2c(c1)OCO2 (configuration not stated)", "8.88%"],
  ["O=C1CCC2(CCN(Cc3ccc(F)cc3)CC2)N1CCN1CCCC1", "-4.72%"],
  ["CN(C)C(=O)C1CCc2nnc(C(C)(C)C)n21 (configuration not stated)", "3.13%"],
  ["Cc1cc(C(=O)N2CCCC(N3CCCCCC3)C2)nn1C(C)(C)C (configuration not stated)", "-4.4%"],
  ["Cc1ccc(C2CCCN2S(=O)(=O)N(C)CCc2ccccn2)o1 (configuration not stated)", "-5.31%"],
  ["Cc1cc(C)c2[nH]c(C(=O)NCCN3CCOC3=O)c(C)c2c1", "-0.2%"],
  ["CC1CCC(NS(=O)(=O)CC(=O)NC2(C(N)=O)CCCC2)CC1 (configuration not stated)", "-4.12%"],
  ["COc1cc(F)c(S(=O)(=O)N2c3ncccc3NC(=O)C2C)cc1OC (configuration not stated)", "-1.92%"],
  ["Cc1nsc(C(=O)NCCc2cccs2)n1", "-2.67%"],
  ["O=C(CCNC(=O)c1ccccc1N1CCOCC1)NC1CCCC1", "-17.8%"],
  ["COc1cc(N2C[C@H]3CCN(CCN4CCCC4)C[C@H]3C2)ncn1", "12%"],
  ["CCN(CC)Cc1cc(=O)n2c(n1)CN(C(=O)c1ccc[nH]1)CCC2", "-112%"],
  ["Cc1cnn(CC2CCCCN2C(=O)c2ccc3c(c2)COC3)c1 (configuration not stated)", "-24.7%"]
]}
